src = paper PMC4757822

Target: T1, hZnK (RecQ4 Zn knuckle) (human, UniProt O94761 394-427)
T1 chain: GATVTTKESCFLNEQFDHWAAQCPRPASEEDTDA
Assay: EMSA; 5 mM ZnCl2, 2 mM Mg2+; 20 mM Tris-HCl pH 7.5, 2 mM MgCl2, 50 mM NaCl, 5% glycerol, 1 mM DTT, 5 mM ZnCl2, 0.1 mg/ml BSA, 10 nM probe, 30 min room temperature; 6% native gel in TBE at 4 C
Conditions: protein: recombinant; tags: N-terminal 6His-GST (not cleaved); label: 5'-32P on one strand; fork, 22 bp plus 15 nt unpaired U arms (3' arm of A3, 5' arm of A4)
endpoint.label: Kd

Exercise: Endpoint output: Kd of forkRNA (A3+A4) (dsRNA) RNA 1: GUAGUGCAUGUACACCACACUCUUUUUUUUUUUUUUU RNA 2: UUUUUUUUUUUUUUUGAGUGUGGUGUACAUGCACUAC . Value?
Key: ~130 nM
